Biological target: UniProtKB P20265
Sequence (P20265 1-443): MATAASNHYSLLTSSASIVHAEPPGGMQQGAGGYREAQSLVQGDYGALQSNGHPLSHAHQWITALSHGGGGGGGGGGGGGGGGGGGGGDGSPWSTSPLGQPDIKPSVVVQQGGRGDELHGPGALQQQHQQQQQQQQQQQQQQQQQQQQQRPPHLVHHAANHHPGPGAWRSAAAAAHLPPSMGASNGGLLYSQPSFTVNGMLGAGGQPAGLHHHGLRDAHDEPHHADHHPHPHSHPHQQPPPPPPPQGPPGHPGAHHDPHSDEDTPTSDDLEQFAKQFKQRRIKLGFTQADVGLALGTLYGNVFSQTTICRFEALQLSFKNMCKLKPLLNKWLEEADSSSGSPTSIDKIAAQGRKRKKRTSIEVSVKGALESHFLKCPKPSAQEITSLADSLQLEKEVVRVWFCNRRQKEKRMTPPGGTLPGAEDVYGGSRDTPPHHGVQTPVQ
Test: BLI binding
Settings: result in words
metric: BLI binding

O=C1/C(=N\Nc2nc3ccccc3s2)Nc2ccccc21 = Positive binding
O=C1/C(=N\Nc2nc3ccccc3s2)Cc2c1cccc2C(F)(F)F = Positive binding
O=C1/C(=N\Nc2nc3ccccc3s2)Cc2cc(N3CCCCC3)ccc21 = No binding
O=C1/C(=N\Nc2nc3ccccc3s2)Cc2cc(O)ccc21 = Positive binding
COC(=O)c1ccc2nc(N/N=C3/Cc4ccccc4C3=O)sc2c1 = No binding

// next item, BLI binding requested
Incoming: Reported BLI binding for O=C1/C(=N\Nc2nc3ccccc3s2)Nc2cc(Br)ccc21 : what is it?
Outgoing: No binding
